target: Phosphatidylinositol 4,5-bisphosphate 3-kinase catalytic subunit alpha isoform (Homo sapiens); assay: Inhibition of recombinant human full length N-terminal GST-tagged PI3Kalpha (1 to 1068 residues)/PIK3R1 (1 to 724 residues) expressed in baculovirus expression system using PIP2 as substrate incubated for 1 hr by ADP-Glo assay
Sequence (P42336 whole entry, looked up, the tested form may be a part, canonical isoform): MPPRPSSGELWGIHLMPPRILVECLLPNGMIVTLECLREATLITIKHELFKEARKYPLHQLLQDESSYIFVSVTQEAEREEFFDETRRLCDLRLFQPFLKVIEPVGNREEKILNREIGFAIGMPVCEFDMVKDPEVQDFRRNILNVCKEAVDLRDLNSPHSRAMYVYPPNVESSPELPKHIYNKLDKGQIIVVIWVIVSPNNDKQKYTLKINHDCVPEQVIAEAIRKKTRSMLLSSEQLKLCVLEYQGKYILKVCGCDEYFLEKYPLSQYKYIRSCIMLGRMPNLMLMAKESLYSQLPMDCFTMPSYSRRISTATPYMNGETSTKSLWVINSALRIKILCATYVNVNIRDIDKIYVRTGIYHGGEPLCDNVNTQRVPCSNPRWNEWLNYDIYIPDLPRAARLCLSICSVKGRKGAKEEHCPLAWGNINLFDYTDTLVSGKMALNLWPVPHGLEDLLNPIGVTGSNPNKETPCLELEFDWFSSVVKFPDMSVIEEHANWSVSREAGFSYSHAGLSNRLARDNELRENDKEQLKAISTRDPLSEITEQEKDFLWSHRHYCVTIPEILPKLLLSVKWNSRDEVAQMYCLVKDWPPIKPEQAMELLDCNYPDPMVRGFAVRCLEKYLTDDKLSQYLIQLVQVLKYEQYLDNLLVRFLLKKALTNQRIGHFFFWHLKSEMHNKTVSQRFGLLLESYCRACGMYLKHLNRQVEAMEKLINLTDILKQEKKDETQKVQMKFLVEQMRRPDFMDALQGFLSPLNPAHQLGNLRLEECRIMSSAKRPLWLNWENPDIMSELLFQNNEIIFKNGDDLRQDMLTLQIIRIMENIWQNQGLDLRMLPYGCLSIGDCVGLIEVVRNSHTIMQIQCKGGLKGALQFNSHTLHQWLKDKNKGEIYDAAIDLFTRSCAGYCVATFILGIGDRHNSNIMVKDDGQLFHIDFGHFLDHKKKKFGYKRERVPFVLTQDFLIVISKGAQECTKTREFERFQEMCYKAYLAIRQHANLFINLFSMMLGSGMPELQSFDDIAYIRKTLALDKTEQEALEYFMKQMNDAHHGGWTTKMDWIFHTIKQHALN
pIC50: −log10 of the molar value.

SMI	pIC50
Cc1ccc(N2C(=O)COc3ccc(-c4ccc(O)cc4)cc32)cc1	< 6.00
O=C1COc2ccc(-c3cccc(NS(=O)(=O)c4ccc(F)cc4)c3)cc2N1C1CC1	< 6.00
COc1ccc(N2C(=O)COc3ccc(-c4cccc(NS(=O)(=O)c5ccc(F)cc5)c4)cc32)cc1	< 6.00
O=C1COc2ccc(-c3ccc(O)cc3)cc2N1C1CCCCC1	< 5.00
COc1ncc(-c2ccc3c(c2)N(C2CC2)C(=O)CO3)cc1NS(=O)(=O)c1ccc(F)cc1	6.88
O=C1COc2ccc(-c3cccc(NS(=O)(=O)c4ccc(F)cc4)c3)cc2N1C1CCCCC1	< 6.00
O=C1COc2ccc(-c3cccc(NS(=O)(=O)c4ccc(F)cc4)c3)cc2N1	< 6.00

---

Overview of reported pIC50 across a group of compounds:
biological target: PI3-kinase p110-delta/p85-alpha (Homo sapiens); experiment: Inhibition of recombinant human full length N-terminal GST-tagged PI3Kdelta (1 to 1044 residues)/PIK3R1 (1 to 724 residues) expressed in baculovirus expression system using PIP2 as substrate incubated for 2 hrs by ADP-Glo assay
Sequence (P27986 whole entry, the tested form may be a part): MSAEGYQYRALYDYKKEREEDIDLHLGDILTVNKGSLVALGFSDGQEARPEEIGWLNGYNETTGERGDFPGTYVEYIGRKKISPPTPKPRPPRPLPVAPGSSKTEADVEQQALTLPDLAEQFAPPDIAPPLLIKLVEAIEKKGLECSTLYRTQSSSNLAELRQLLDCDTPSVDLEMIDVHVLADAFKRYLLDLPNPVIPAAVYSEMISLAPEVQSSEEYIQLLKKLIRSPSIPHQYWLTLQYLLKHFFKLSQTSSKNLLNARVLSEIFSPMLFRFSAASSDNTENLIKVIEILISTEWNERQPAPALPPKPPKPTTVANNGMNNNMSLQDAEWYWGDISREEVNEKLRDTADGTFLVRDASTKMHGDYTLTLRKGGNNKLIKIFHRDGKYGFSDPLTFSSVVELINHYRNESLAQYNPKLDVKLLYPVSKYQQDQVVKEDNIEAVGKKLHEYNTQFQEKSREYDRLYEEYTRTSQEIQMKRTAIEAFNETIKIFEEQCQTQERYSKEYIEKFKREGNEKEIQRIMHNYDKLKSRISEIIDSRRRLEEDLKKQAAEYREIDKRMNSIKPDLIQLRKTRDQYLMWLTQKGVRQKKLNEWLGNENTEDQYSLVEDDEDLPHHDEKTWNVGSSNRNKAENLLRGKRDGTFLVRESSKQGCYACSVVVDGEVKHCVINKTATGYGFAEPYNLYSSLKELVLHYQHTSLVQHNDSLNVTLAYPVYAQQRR
Sequence (O00329 whole entry, the tested form may be a part): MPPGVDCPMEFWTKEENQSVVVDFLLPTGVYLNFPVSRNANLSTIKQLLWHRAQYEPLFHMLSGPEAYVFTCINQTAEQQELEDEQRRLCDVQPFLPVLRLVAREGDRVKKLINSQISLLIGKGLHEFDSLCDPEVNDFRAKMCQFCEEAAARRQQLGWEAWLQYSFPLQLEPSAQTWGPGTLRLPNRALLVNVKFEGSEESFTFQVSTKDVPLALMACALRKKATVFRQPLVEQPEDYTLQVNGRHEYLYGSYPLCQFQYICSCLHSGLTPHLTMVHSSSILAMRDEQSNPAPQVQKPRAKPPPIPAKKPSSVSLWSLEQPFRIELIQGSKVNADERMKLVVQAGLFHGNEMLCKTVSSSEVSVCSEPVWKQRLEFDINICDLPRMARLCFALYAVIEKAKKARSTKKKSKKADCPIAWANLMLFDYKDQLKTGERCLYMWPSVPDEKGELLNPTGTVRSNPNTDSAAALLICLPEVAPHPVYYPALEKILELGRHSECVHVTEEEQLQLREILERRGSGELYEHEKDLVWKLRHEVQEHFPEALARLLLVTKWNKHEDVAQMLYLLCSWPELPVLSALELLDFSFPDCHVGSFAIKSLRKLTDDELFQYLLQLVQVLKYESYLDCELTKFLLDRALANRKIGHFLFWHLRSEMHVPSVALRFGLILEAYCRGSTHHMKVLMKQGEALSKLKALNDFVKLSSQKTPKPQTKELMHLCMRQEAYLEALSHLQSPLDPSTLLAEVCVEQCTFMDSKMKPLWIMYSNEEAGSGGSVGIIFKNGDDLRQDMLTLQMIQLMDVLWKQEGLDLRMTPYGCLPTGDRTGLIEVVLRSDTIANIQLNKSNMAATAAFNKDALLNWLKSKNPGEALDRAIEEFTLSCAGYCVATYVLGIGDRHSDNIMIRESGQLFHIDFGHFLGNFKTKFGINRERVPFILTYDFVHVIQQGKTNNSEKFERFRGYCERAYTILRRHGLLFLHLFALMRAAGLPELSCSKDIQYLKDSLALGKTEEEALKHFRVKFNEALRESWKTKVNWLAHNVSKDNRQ
pIC50: −log10 of the molar value.

SMI	pIC50
O=C1COc2ccc(-c3cnc4ccccc4c3)cc2N1c1ccc(F)cc1	< 6.00
COc1ccc(N2C(=O)COc3ccc(-c4cccc(NS(=O)(=O)c5ccc(F)cc5)c4)cc32)cc1	< 6.00
COc1cccc(N2C(=O)COc3ccc(-c4cnc(OC)c(NS(=O)(=O)c5ccc(F)cc5)c4)cc32)c1	< 6.00

---

system: HCT-116; test: Antiproliferative activity against human HCT116 cells assessed as reduction in cell viability incubated for 72 hrs by MTT assay; type: functional, cell-based; details: HCT-116, 72 h
Overview of reported IC50 across a group of compounds:

SMI	IC50
O=C1COc2ccc(-c3cnc4ccccc4c3)cc2N1c1ccc(F)cc1	> 40 µM
O=C1COc2ccc(-c3cnc(Cl)c(NS(=O)(=O)c4ccc(F)cc4)c3)cc2N1	> 40 µM
O=C1COc2ccc(-c3cccc(NS(=O)(=O)c4ccc(F)cc4)c3)cc2N1c1ccc(F)cc1	> 40 µM
O=C1COc2ccc(-c3cnc4ccccc4c3)cc2N1	> 40 µM
O=C1COc2ccc(-c3ccc(O)cc3)cc2N1c1ccccc1	> 40 µM
COc1ncc(-c2ccc3c(c2)N(c2ccc(C)cc2)C(=O)CO3)cc1NS(=O)(=O)c1ccc(F)cc1	22.7 µM
O=C1COc2ccc(-c3cccc(NS(=O)(=O)c4ccc(F)cc4)c3)cc2N1c1ccccc1	> 40 µM
O=C1COc2ccc(-c3cccc(NS(=O)(=O)c4ccc(F)cc4)c3)cc2N1C1CC1	> 40 µM
COc1cccc(N2C(=O)COc3ccc(-c4cccc(NS(=O)(=O)c5ccc(F)cc5)c4)cc32)c1	> 40 µM
CC(C)N1C(=O)COc2ccc(-c3cnc(Cl)c(NS(=O)(=O)c4ccc(F)cc4)c3)cc21	18.9 µM
O=C1COc2ccc(-c3cnc4ccccc4c3)cc2N1C1CCCCC1	> 40 µM
O=C1COc2ccc(-c3ccc(O)cc3)cc2N1C1CCCCC1	> 40 µM
COc1cccc(N2C(=O)COc3ccc(-c4ccc(O)cc4)cc32)c1	15.3 µM
COc1cccc(N2C(=O)COc3ccc(-c4cnc(OC)c(NS(=O)(=O)c5ccc(F)cc5)c4)cc32)c1	> 40 µM
O=C1COc2ccc(-c3cnc(Cl)c(NS(=O)(=O)c4ccc(F)cc4)c3)cc2N1C1CCCCC1	> 40 µM
O=C1COc2ccc(-c3ccc(O)cc3)cc2N1c1ccc(F)cc1	> 40 µM
O=C1COc2ccc(-c3cnc4ccccc4c3)cc2N1C1CC1	> 40 µM
COc1ncc(-c2ccc3c(c2)N(C2CCCCC2)C(=O)CO3)cc1NS(=O)(=O)c1ccc(F)cc1	> 40 µM
Cn1c(=O)n(-c2ccc(C(C)(C)C#N)cc2)c2c3cc(-c4cnc5ccccc5c4)ccc3ncc21	1.7 µM
CC(C)N1C(=O)COc2ccc(-c3ccc(O)cc3)cc21	> 40 µM
O=C1COc2ccc(-c3cnc4ccccc4c3)cc2N1c1ccc(Cl)cc1	36.1 µM
O=C1COc2ccc(-c3ccc(O)cc3)cc2N1C1CC1	> 40 µM
COc1ncc(-c2ccc3c(c2)N(c2ccc(F)cc2)C(=O)CO3)cc1NS(=O)(=O)c1ccc(F)cc1	> 40 µM
Cc1ccc(N2C(=O)COc3ccc(-c4cccc(NS(=O)(=O)c5ccc(F)cc5)c4)cc32)cc1	35.6 µM
O=C1COc2ccc(-c3ccc(O)cc3)cc2N1	> 40 µM
CC(C)N1C(=O)COc2ccc(-c3cnc4ccccc4c3)cc21	23.2 µM
O=C1COc2ccc(-c3cnc(Cl)c(NS(=O)(=O)c4ccc(F)cc4)c3)cc2N1C1CC1	12.4 µM

---

molecular target: Serine/threonine-protein kinase mTOR (Homo sapiens, UniProt P42345); test: Inhibition of recombinant human N-terminal FLAG-tagged mTOR (1362 to end residues) using Ulight-4E-BP1 as substrate incubated for 30 mins by fluorescence assay
pIC50: −log10 of the molar value.
RESULT_TYPE: pIC50

SMI	RESULT_TYPE	VALUE_OPERATOR	RECORDED_VALUE
O=C1COc2ccc(-c3cccc(NS(=O)(=O)c4ccc(F)cc4)c3)cc2N1C1CCCCC1	pIC50	<	6.00
COc1ncc(-c2ccc3c(c2)N(C(C)C)C(=O)CO3)cc1NS(=O)(=O)c1ccc(F)cc1	pIC50	=	8.44
COc1cccc(N2C(=O)COc3ccc(-c4cnc5ccccc5c4)cc32)c1	pIC50	<	6.00
O=C1COc2ccc(-c3cccc(NS(=O)(=O)c4ccc(F)cc4)c3)cc2N1c1ccc(F)cc1	pIC50	<	6.00
O=C1COc2ccc(-c3cnc(Cl)c(NS(=O)(=O)c4ccc(F)cc4)c3)cc2N1c1ccc(F)cc1	pIC50	=	7.75

---

Overview of reported pIC50 across a group of compounds:
molecular target: PI3-kinase p110-delta/p85-alpha (Homo sapiens); assay: Inhibition of recombinant human full length N-terminal GST-tagged PI3Kdelta (1 to 1044 residues)/PIK3R1 (1 to 724 residues) expressed in baculovirus expression system using PIP2 as substrate incubated for 2 hrs by ADP-Glo assay
pIC50: −log10 of the molar value.

SMI	VALUE_OPERATOR	pIC50
O=C1COc2ccc(-c3cnc(Cl)c(NS(=O)(=O)c4ccc(F)cc4)c3)cc2N1c1ccc(F)cc1	=	8.30
O=C1COc2ccc(-c3ccc(O)cc3)cc2N1c1ccccc1	<	6.00
O=C1COc2ccc(-c3ccc(O)cc3)cc2N1C1CC1	<	6.00
O=C1COc2ccc(-c3ccc(O)cc3)cc2N1c1ccc(Cl)cc1	<	6.00
O=C1COc2ccc(-c3cnc(Cl)c(NS(=O)(=O)c4ccc(F)cc4)c3)cc2N1c1ccccc1	=	7.82
Cc1ccc(N2C(=O)COc3ccc(-c4cnc(Cl)c(NS(=O)(=O)c5ccc(F)cc5)c4)cc32)cc1	=	8.43

---

Overview of reported pIC50 across a group of molecules:
tested on: HCT-116; assay: Antiproliferative activity against human HCT116 cells assessed as reduction in cell viability incubated for 72 hrs by MTT assay; format: functional, cell-based; details: HCT-116, 72 h
pIC50: −log10 of the molar value.

SMI	SUBJECT_OF_TEST	pIC50
Cc1ccc(N2C(=O)COc3ccc(-c4cnc5ccccc5c4)cc32)cc1	HCT-116	< 4.40
O=C1COc2ccc(-c3cnc4ccccc4c3)cc2N1c1ccccc1	HCT-116	< 4.40
Cc1ccc(N2C(=O)COc3ccc(-c4ccc(O)cc4)cc32)cc1	HCT-116	< 4.40

---

target: Phosphatidylinositol 4,5-bisphosphate 3-kinase catalytic subunit alpha isoform (Homo sapiens); assay: Inhibition of recombinant human full length N-terminal GST-tagged PI3Kalpha (1 to 1068 residues)/PIK3R1 (1 to 724 residues) expressed in baculovirus expression system using PIP2 as substrate incubated for 1 hr by ADP-Glo assay
RESULT_TYPE: IC50

SMI	RESULT_TYPE	RECORDED_VALUE
CC(C)N1C(=O)COc2ccc(-c3ccc(O)cc3)cc21	IC50	> 1000 nM
O=C1COc2ccc(-c3ccc(O)cc3)cc2N1c1ccccc1	IC50	> 1000 nM
CC(C)N1C(=O)COc2ccc(-c3cccc(NS(=O)(=O)c4ccc(F)cc4)c3)cc21	IC50	> 1000 nM

---

Overview of reported pIC50 across a group of molecules:
molecular target: Phosphatidylinositol 4,5-bisphosphate 3-kinase catalytic subunit alpha isoform (Homo sapiens); test: Inhibition of recombinant human full length N-terminal GST-tagged PI3Kalpha (1 to 1068 residues)/PIK3R1 (1 to 724 residues) expressed in baculovirus expression system using PIP2 as substrate incubated for 1 hr by ADP-Glo assay
pIC50: −log10 of the molar value.

SMI	pIC50
O=C1COc2ccc(-c3cccc(NS(=O)(=O)c4ccc(F)cc4)c3)cc2N1c1ccccc1	< 6.00
COc1cccc(N2C(=O)COc3ccc(-c4cnc(OC)c(NS(=O)(=O)c5ccc(F)cc5)c4)cc32)c1	< 6.00
COc1cccc(N2C(=O)COc3ccc(-c4cccc(NS(=O)(=O)c5ccc(F)cc5)c4)cc32)c1	< 6.00
